Target: T1, 4H710-AA
T1 chain: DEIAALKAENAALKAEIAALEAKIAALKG
Assay: two-hybrid library CCmax;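 note: natural log of median RNA to DNA barcode read ratio; higher means stronger binding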
Details: mean of both orientations
measured_parameter: interaction score

Some solved cases for reference:
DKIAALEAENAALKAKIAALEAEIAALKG [4H2274-AA] | 0.53
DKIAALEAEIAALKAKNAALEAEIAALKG [4H2162-AA] | -1.09
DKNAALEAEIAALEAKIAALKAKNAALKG [4H3120-AA] | -1.56
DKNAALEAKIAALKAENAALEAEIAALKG [4H3410-AA] | -1.13
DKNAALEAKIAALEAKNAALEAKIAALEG [4H3381-AA] | -1.49
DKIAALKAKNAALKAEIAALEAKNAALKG [4H3016-AA] | -1.35

[I] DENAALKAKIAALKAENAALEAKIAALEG [4H1877-AA]
[II] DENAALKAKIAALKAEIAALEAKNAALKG [4H1864-AA]
Of I and II , which shows the smaller interaction score value? To answer, give the label that identifies your chosen option. I
(I: -0.752, II: 1.32)
